- System Under Test: human recombinant CTSC (Homo sapiens (Human), UniProt P53634)
- Method: CTSC inhibition assay (in vitro), fluorescent substrate GF-AFC
- Type: biochemical
- Experimental Parameters: 30 μmol/L GF-AFC, pH 5.0, 25° C.
Label Y when IC50 is strictly below 2 nM; otherwise label N.

>  <Record Smiles>
CC1(C)CN[C@H](C(=O)N2CCC(c3noc(C4CCC(F)(F)CC4)n3)(C(F)(F)F)CC2)C[C@H]1O

>  <Assigned Class>
N

$$$$

Incoming: Lab log: compare recorded IC50 with 2 nM; is it strictly lower for `COc1cccc(-n2nnc(C3CCN(C(=O)[C@@H]4C[C@@H](O)C5(CCC5)CN4)CC3)n2)c1` ?
Outgoing: N

Incoming: For `CC(C)C1(c2noc(C3CCC(F)(F)CC3)n2)CCN(C(=O)[C@@H]2C[C@@H](O)C3(CCC3)CN2)CC1` , is the recorded IC50 below the cut-off of 2 nM?
Outgoing: Y

Incoming: State whether 2 nM exceeds IC50 recorded for `O=C([C@@H]1CC[C@@]2(CCO2)CN1)N1CCC(c2ccc(F)cc2)(c2nnc(C3CCC(F)(F)CC3)o2)CC1` .
Outgoing: N

Incoming: Decide: IC50 of `CC1(C)CN[C@H](C(=O)N2CCC(c3noc(C4CCC(F)(F)CC4)n3)(C3CC3)CC2)C[C@H]1O` strictly below 2 nM?
Outgoing: Y

Incoming: Lab note: confirm whether the reported IC50 for this molecule is below 2 nM, equality not counting. molecule: `CC(C)C1(c2nc(C3CC(F)(F)C3)no2)CCN(C(=O)[C@@H]2C[C@@H](O)C3(CCC3)CN2)CC1`
Outgoing: Y

Incoming: Input `O=C([C@@H]1C[C@@H](O)C2(CCC2)CN1)N1CCC(c2cn(C3CCC(F)(F)CC3)nn2)(C(F)(F)F)CC1` ; condition: IC50 strictly below 2 nM. Does it hold?
Outgoing: Y

###

- System Under Test: CTSC in U937 cells (Homo sapiens (Human), UniProt P53634)
- Sequence (P53634 25-463): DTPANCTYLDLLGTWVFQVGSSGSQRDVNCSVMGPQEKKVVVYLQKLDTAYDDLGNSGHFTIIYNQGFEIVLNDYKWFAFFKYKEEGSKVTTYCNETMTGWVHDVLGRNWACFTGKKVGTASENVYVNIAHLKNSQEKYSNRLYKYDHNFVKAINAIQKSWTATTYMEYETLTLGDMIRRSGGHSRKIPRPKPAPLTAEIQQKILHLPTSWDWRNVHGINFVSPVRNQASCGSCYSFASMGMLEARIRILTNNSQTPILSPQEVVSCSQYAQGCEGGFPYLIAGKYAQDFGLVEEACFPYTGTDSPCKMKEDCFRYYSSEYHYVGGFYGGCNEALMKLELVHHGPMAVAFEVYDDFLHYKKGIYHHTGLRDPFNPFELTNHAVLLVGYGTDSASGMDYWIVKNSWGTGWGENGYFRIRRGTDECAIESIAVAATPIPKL
- Method: Intracellular CTSC inhibition assay (in vitro), LLOMe-induced cell death in U937 cells
- Format: cell-based
- Experimental Parameters: 3 hours culture, CellTiter-Glo
Counter-ions that a name gives are not always drawn.
Checkbox rule: IC50 lower than 10 nM = TRUE; IC50 not lower than 10 nM = FALSE.

Look over these answered cases.
>  <Compound>
O=C([C@@H]1C[C@@H](O)C2(CCC2)CN1)N1CCC(c2noc(C3CCC(F)(F)CC3)n2)(C(F)(F)F)CC1 [Example 31]

>  <Assigned Class>
TRUE

$$$$
>  <Compound>
O=C([C@@H]1C[C@@H](O)C2(CCC2)CN1)N1CCC(C(=O)NCC2CCC(F)(F)CC2)(C(F)(F)F)CC1 [Example 22]

>  <Assigned Class>
FALSE

$$$$
>  <Compound>
O=C([C@@H]1C[C@@H](O)C2(CCC2)CN1)N1CCC(c2noc(C3CCC(F)(F)CO3)n2)(C(F)(F)F)CC1 (stereo partly shown) [Example 64]

>  <Assigned Class>
TRUE

$$$$

Incoming: Please let me know if O=C([C@@H]1CC[C@@]2(CCO2)CN1)N1CCC(c2nc(C3CC(F)(F)C3)no2)(C(F)(F)F)CC1 [Example 10] shows IC50 below 10 nM.
Outgoing: FALSE

Incoming: Bench note: check whether O=C([C@@H]1C[C@@H](O)C2(CCC2)CN1)N1CCC(c2cnn(-c3ccc(F)cc3)c2)CC1 [Example 93] shows IC50 below 10 nM
Outgoing: TRUE

Incoming: I wonder whether CC(C)C1(c2nnc(C3CCC(F)(F)CC3)o2)CN(C(=O)[C@@H]2C[C@@H](O)C3(CCC3)CN2)C1 [Example 16, trifluoroacetate] has IC50 below 10 nM. Can you tell?
Outgoing: FALSE
